Tested on: MDA-MB-231
experiment-notes: NCI tumour cell line growth inhibition, 48 h
The source made the active and inactive calls. No stated cut-off is given here; in the data, active = GI50 up to about 1.1 µM and inactive = higher.
endpoint-name: GI50

{"columns": ["molecule", "GI50"],
 "data": [
  ["CC(=O)OCC1OC(n2nc(Cc3ccccc3)c(=S)[nH]c2=S)C(OC(C)=O)C(OC(C)=O)C1OC(C)=O (stereo unspecified)", "14.7 µM (inactive)"],
  ["N#CCCN(CCC#N)c1ccc(/C=N\\c2ccc(F)cc2)cc1", "> 100 µM (inactive)"],
  ["COc1cccc2cc(C(=O)Nc3ccccn3)c(=N)oc12", "63 µM (inactive)"],
  ["CCOc1ccc(/N=C/c2ccnc3ccccc23)cc1", "20.7 µM (inactive)"],
  ["OC(NN=C1CCCC1)(C(F)(F)Cl)C(F)(F)Cl", "> 10 µM (inactive)"]
]}

Consider now this further molecule.
Problem: Using the record for COC(=O)CN1c2nc(C#N)c(C#N)nc2N(CC(=O)OC)c2nc(C#N)c(C#N)nc21 , report its GI50.
Solution: 6.73 µM (inactive)

* * *

Reported GI50 is given for each of the following compounds.
Test system: RPMI-8226
experiment-notes: NCI tumour cell line growth inhibition, 48 h
Calls of active or inactive are those of the source. No stated cut-off is given here; in the data, active = GI50 up to about 1.1 µM and inactive = higher.

Completed entries (count: 3):
{"columns": ["compound", "GI50"],
 "data": [
  ["O=C(NNC(=O)c1ccccc1O)c1ccco1", "84.5 µM (inactive)"],
  ["CC(=O)OC1C2CCC3CC2C2(SCCS2)C31 (centres undefined)", "> 100 µM (inactive)"],
  ["COc1nc(N)nc2c1n(C)c[n+]2C", "> 100 µM (inactive)"]
]}

Kindly consider the entry below.
Problem: Which value of GI50 has been reported for Cc1ccc2c(c1)C(=O)C(C1OC(=O)c3ccccc31)C2 (centres undefined) in the records?
Solution: 45.8 µM (inactive)

* * *

Test system: MOLT-4
experiment-notes: NCI tumour cell line growth inhibition, 48 h
Activity calls are given as the source filed them. Rule as the data show it: active = GI50 up to about 1.1 µM and inactive = higher.
endpoint-name: GI50

{"columns": ["compound", "measured-target", "experimental-value"],
 "data": [
  ["COc1ccccc1/C=C1\\CCC(CN2CCOCC2)C1=O (stereo not given)", "MOLT-4", "2.32 µM (inactive)"],
  ["C/C(CCOC1CCCCO1)=C(\\C)[Si](C)(C)C (stereo not given)", "MOLT-4", "72.8 µM (inactive)"],
  ["CC1CNC(c2ccc(CN3CCC(C4CCN(Cc5ccc(C6=NC(C)CN6)cc5)CC4)CC3)cc2)=N1 (stereo not given)", "MOLT-4", "19.7 µM (inactive)"],
  ["C=C1C(=O)CC2C(=O)C(C)(O)CC/C=C(\\C)C(=O)CC12 (stereo not given)", "MOLT-4", "4.14 µM (inactive)"],
  ["CC(=O)Oc1ccc(/C=C/C(=O)OCCCOC(=O)/C=C/c2ccc(OC(C)=O)c(OC(C)=O)c2)cc1OC(C)=O", "MOLT-4", "> 100 µM (inactive)"],
  ["CC1CC[C@]2(C(=O)O)CCC3(C)C(=CCC4[C@@]5(C)CC[C@H](OS(=O)(=O)c6ccccc6)C(C)(C)C5CC[C@]43C)[C@@H]2[C@H]1C (stereo not given in full)", "MOLT-4", "34.3 µM (inactive)"],
  ["CC1CC2C(=O)N(c3ccccc3)C(=O)C2c2c1c1ccccc1n2Cc1ccccc1 (stereo not given)", "MOLT-4", "58.5 µM (inactive)"],
  ["CN(C)C(=S)/N=c1\\ssc(=S)n1Cc1ccncc1", "MOLT-4", "14 µM (inactive)"]
]}

Problem: Bench note: what GI50 did O=C(NNC(=S)Nc1ccccc1)c1cc(-c2ccccc2)nc2ccccc12 show?
Solution: 11.4 µM (inactive)

Problem: c1cc(-c2cn[nH]c2)cc(-c2cn[nH]c2)c1 , same question.
Solution: 33.1 µM (inactive)

Problem: Thanks! And CCOC(=O)/C(=C/c1ccc(Cl)cc1)N(CC)CC ?
Solution: > 100 µM (inactive)

Problem: Quick one: Cc1cccc(N2C(=O)C3c4[nH]c5ccccc5c4C4CCC(C(C)(C)C)CC4C3C2=O)c1 (stereo not given)
Solution: 8.83 µM (inactive)

Problem: What do you get for CN(CC(=O)O)c1ncc2c(n1)-c1ccccc1CC2 ?
Solution: > 100 µM (inactive)

Problem: Likewise for COc1ccc(C2=Nn3c(nc4sc5c(c4c3=O)CCCC5)SC2)cc1 ?
Solution: > 100 µM (inactive)

Problem: Quick one: COc1ccc(OC(=O)N2C/C(=C\c3ccccc3)C(=O)/C(=C/c3ccccc3)C2)cc1
Solution: 1.49 µM (inactive)
